- Organism: Homo sapiens
- experimental-protocol: Inhibitory effect (10e-6 M) on the 25-hydroxyvitamin D3-1-hydroxylase activity
Listing of recorded Activity by entry.
Field format: number, assumed pmol/10 min, no unit text.

The following compounds have reported results that may help.
INSERT INTO results (chem_smiles, result_value) VALUES
  ('C=C1/C(=C\C=C2/CCC[C@]3(C)[C@@H]([C@H](C)Cc4cccc(C)c4)CC[C@@H]23)C[C@@H](O)C[C@@H]1O', 16.7),
  ('C=C1/C(=C\C=C2/CCC[C@]3(C)[C@@H]([C@H](C)Cc4cccc(O)c4)CC[C@@H]23)C[C@@H](O)C[C@@H]1O', 16.9),
  ('C=C1/C(=C\C=C2/CCC[C@]3(C)[C@@H]([C@H](C)Cc4cccc(C(C)(C)O)c4)CC[C@@H]23)C[C@@H](O)C[C@@H]1O', 17.2);

Per the records, this compound ( `C=C1/C(=C\C=C2/CCC[C@]3(C)[C@@H]([C@H](C)CCCC(C)(C)O)CC[C@@H]23)C[C@@H](O)C[C@@H]1O` ) has Activity equal to 2.1
